SARS-CoV-2 Main Protease (SARS-CoV-2) measurements of IC50, listed per entry.

{"molecule": "O=C(Cc1cccc(Cl)c1)Nc1n[nH]c2ccccc12", "IC50": "> 99.5 µM"}
{"molecule": "CC(C)(C)c1ccc(N(C(=O)c2cc(=O)c3c(O)cccc3o2)C(C(=O)NCCc2cccc(F)c2)c2cccnc2)cc1 (stereo not drawn)", "IC50": "> 99.5 µM"}
{"molecule": "O=C(Nc1cncc2ccccc12)C1CCOc2c(OCC3CC3)cc(Cl)cc21 (stereo not drawn)", "IC50": "> 2.49 µM"}

###

pIC50: −log10 of the molar value.
For reference, pIC50 measured on SARS-CoV-2 Main Protease (SARS-CoV-2) (UniProt P0DTD1):
property: pIC50

{"compound": "O=C1Cc2ccccc2N(C(=O)Cc2cccc(Cl)c2)C1", "target_system": "SARS-CoV-2 Main Protease (SARS-CoV-2) (UniProt P0DTD1)", "operator": "<", "assay_value": 4.00}
{"compound": "O=C(c1ccc2nc(C(F)F)[nH]c2c1)N1CCC(C2CCNC2)CC1 (stereo not given)", "target_system": "SARS-CoV-2 Main Protease (SARS-CoV-2) (UniProt P0DTD1)", "operator": "<", "assay_value": 4.00}
{"compound": "O=C(Cc1cccc(Cl)c1)Nc1cccc2cn[nH]c12", "target_system": "SARS-CoV-2 Main Protease (SARS-CoV-2) (UniProt P0DTD1)", "operator": "<", "assay_value": 4.00}
{"compound": "O=C(Cc1cc(Cl)cc(Nc2ccc(Br)c3ccccc23)c1)Nc1cncc2ccccc12", "target_system": "SARS-CoV-2 Main Protease (SARS-CoV-2) (UniProt P0DTD1)", "operator": "=", "assay_value": 5.70}
{"compound": "O=C(Cn1nnc2ccccc21)N(Cc1ccsc1)c1ccc(N2CCCCC2)cc1", "target_system": "SARS-CoV-2 Main Protease (SARS-CoV-2) (UniProt P0DTD1)", "operator": "=", "assay_value": 5.18}
{"compound": "O=C(Cc1cc(Cl)cc(Oc2cccc(=O)[nH]2)c1)Nc1cncc2ccccc12", "target_system": "SARS-CoV-2 Main Protease (SARS-CoV-2) (UniProt P0DTD1)", "operator": "=", "assay_value": 5.70}
{"compound": "C=CC(=O)N(c1ccc(C(C)(C)C)cc1)C(C(=O)NC(C)(C)C)c1cncc(Cl)c1 (stereo not given)", "target_system": "SARS-CoV-2 Main Protease (SARS-CoV-2) (UniProt P0DTD1)", "operator": "=", "assay_value": 4.18}
{"compound": "CC(C)(C)c1ccc(N(C(=O)c2ccco2)C(C(=O)NCCc2cccc(F)c2)c2coc3ccccc23)cc1 (stereo not given)", "target_system": "SARS-CoV-2 Main Protease (SARS-CoV-2) (UniProt P0DTD1)", "operator": "<", "assay_value": 4.00}
{"compound": "N#Cc1cccc(C2CN(C(=O)CCl)Cc3ccccc32)c1 (stereo not given)", "target_system": "SARS-CoV-2 Main Protease (SARS-CoV-2) (UniProt P0DTD1)", "operator": "=", "assay_value": 5.93}
{"compound": "O=C(Cc1cccc(Cl)c1)Nc1cnccc1C1CC1", "target_system": "SARS-CoV-2 Main Protease (SARS-CoV-2) (UniProt P0DTD1)", "operator": "=", "assay_value": 5.14}
{"compound": "C=CC(=O)N(c1ccc(C(C)(C)C)cc1)C(C(=O)NCCc1cccc(F)c1)c1cncc(C)c1 (stereo not given)", "target_system": "SARS-CoV-2 Main Protease (SARS-CoV-2) (UniProt P0DTD1)", "operator": "=", "assay_value": 4.94}
{"compound": "N#Cc1c(Cl)cccc1Nc1cc(Cl)cc(CC(=O)Nc2cncc3ccccc23)c1", "target_system": "SARS-CoV-2 Main Protease (SARS-CoV-2) (UniProt P0DTD1)", "operator": "=", "assay_value": 5.71}
{"compound": "Cc1cc(O)ncc1NC(=O)C1CCOc2ccc(Cl)cc21 (stereo not given)", "target_system": "SARS-CoV-2 Main Protease (SARS-CoV-2) (UniProt P0DTD1)", "operator": "<", "assay_value": 4.00}
{"compound": "Cn1cnc(C(=O)N(c2ccc(C(C)(C)C)cc2)C(C(=O)NCCc2cccc(F)c2)c2cccnc2)n1 (stereo not given)", "target_system": "SARS-CoV-2 Main Protease (SARS-CoV-2) (UniProt P0DTD1)", "operator": "=", "assay_value": 4.13}
{"compound": "CC(=O)C(=O)N1CCN(Cc2cccc(Cl)c2)[C@@H](CC(C)C)C1 (stereo in doubt)", "target_system": "SARS-CoV-2 Main Protease (SARS-CoV-2) (UniProt P0DTD1)", "operator": "<", "assay_value": 4.00}
